Data origin, for the record: patent US11780834B2

Experiment: Approximate solubility of Compound B Form B material in 20 solvents at RT
Format: physicochemical
Details: organic solvent or mixture, thermodynamic from solid, DCM
Counter-ions that a name gives are not always drawn.
measured endpoint: solubility

Incoming: Give me measured solubility, please, for this molecule: C[C@@H]1Cc2c([nH]c3ccccc23)[C@@H](c2c(F)cc(NC3CN(CCCF)C3)cc2F)N1CC(F)(F)CO [Compound B, tartrate]
Outgoing: < 2000 µg/mL

* * *

Experiment: Solubility at 37° C. (summary of solid forms)
Format: physicochemical
Details: medium not stated
measured endpoint: solubility

Incoming: Assign solubility to the following record: C[C@@H]1Cc2c([nH]c3ccccc23)[C@@H](c2c(F)cc(NC3CN(CCCF)C3)cc2F)N1CC(F)(F)CO [Compound A]
Outgoing: ~6600 µg/mL

* * *

Assay: Approximate solubility of Compound B Form B material in 20 solvents at RT
Type: physicochemical
Details: organic solvent or mixture, thermodynamic from solid, ACN
Structures can show the parent of a compound that is named as a salt.
measured endpoint: solubility

Incoming: Given the compound C[C@@H]1Cc2c([nH]c3ccccc23)[C@@H](c2c(F)cc(NC3CN(CCCF)C3)cc2F)N1CC(F)(F)CO [Compound B, tartrate] , write its reported solubility.
Outgoing: < 2100 µg/mL

* * *

Assay: Approximate solubility of Compound B Form B material in 20 solvents at RT
Format: physicochemical
Details: organic solvent or mixture, thermodynamic from solid, EtOH
Where a name gives a salt, the structure may show the parent alone.
measured endpoint: solubility

Incoming: Report measured solubility; entry is C[C@@H]1Cc2c([nH]c3ccccc23)[C@@H](c2c(F)cc(NC3CN(CCCF)C3)cc2F)N1CC(F)(F)CO [Compound B, tartrate]
Outgoing: < 1.9 mg/mL

* * *

Assay: Approximate solubility of Compound B Form B material in 20 solvents at RT
Format: physicochemical
Conditions: organic solvent or mixture, thermodynamic from solid, Anisole
Structures can show the parent of a compound that is named as a salt.
measured endpoint: solubility

Incoming: State its solubility: C[C@@H]1Cc2c([nH]c3ccccc23)[C@@H](c2c(F)cc(NC3CN(CCCF)C3)cc2F)N1CC(F)(F)CO [Compound B, tartrate]
Outgoing: < 1900 µg/mL

* * *

Assay: Equilibrium solubility (17 hrs) of Form B and Form F in EtOH
Type: physicochemical
Details: ethanol, 25 °C, organic solvent or mixture, thermodynamic from solid, concentration of freebase in filtrate
measured endpoint: solubility at 17 h (µg/mL)
Give bare numbers, in µg/mL.

Incoming: // fetch solubility at 17 h given entry C[C@@H]1Cc2c([nH]c3ccccc23)[C@@H](c2c(F)cc(NC3CN(CCCF)C3)cc2F)N1CC(F)(F)CO [Compound B Form B]
Outgoing: 230

* * *

Experiment: Four-week GLP repeat-dose oral toxicity study in female monkeys
Settings: female, monkey, plasma, po, 60 mg/kg/day
Where a name gives a salt, the structure may show the parent alone.
measured endpoint: Cmax (ng/mL)
One number for each entry, in ng/mL.

Incoming: Please give measured Cmax of the following entry: C[C@@H]1Cc2c([nH]c3ccccc23)[C@@H](c2c(F)cc(NC3CN(CCCF)C3)cc2F)N1CC(F)(F)CO [Compound B, tartrate]
Outgoing: 841

* * *

Test: Equilibrium solubility (17 hrs) of Form B and Form F in EtOH
Format: physicochemical
Conditions: 35 °C, organic solvent or mixture, thermodynamic from solid, concentration of freebase in filtrate
measured endpoint: solubility at 17 hrs (mg/mL)
One number for each entry, in mg/mL.

Incoming: Answer with reported solubility at 17 hrs of C[C@@H]1Cc2c([nH]c3ccccc23)[C@@H](c2c(F)cc(NC3CN(CCCF)C3)cc2F)N1CC(F)(F)CO [Compound B Form B]
Outgoing: 0.3
